Where do these numbers come from? They come from patent US20230043672A1.

molecular target: human recombinant LPA2 expressed in CHO cells (Homo sapiens, UniProt Q9HBW0); construct: expressed in transfected cells; host or cells: CHO cells (CHO-hLPA2 cell line); experiment: FLIPR calcium mobilization assay, LPA2 antagonism in CHO-hLPA2 cells; assay type: cell-based; settings: LPA EC80 stimulation, potency class, read-out: LPA2 IC50
Sequence (Q9HBW0 whole entry): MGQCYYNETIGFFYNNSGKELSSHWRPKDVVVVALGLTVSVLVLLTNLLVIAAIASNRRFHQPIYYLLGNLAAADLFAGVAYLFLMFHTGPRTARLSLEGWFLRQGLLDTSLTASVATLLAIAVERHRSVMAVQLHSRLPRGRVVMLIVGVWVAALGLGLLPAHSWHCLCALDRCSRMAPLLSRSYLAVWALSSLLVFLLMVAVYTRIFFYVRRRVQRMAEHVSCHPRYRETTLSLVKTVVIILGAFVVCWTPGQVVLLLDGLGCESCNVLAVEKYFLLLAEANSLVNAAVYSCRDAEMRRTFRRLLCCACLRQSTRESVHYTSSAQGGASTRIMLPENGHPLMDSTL
METRIC NAME: IC50

STRUCTURE AS SMILES	METRIC NAME	RESULT
COC(=O)Nc1nc(C)c(S(=O)(=O)N2CCN(C[C@H](C)NC(=O)c3cc(-c4sc(C)nc4C)ccn3)CC2)s1	IC50	< 1000 nM

`COC(=O)Nc1nc(C)c(S(=O)(=O)N2CCN(C[C@H](C)NC(=O)c3cccc(-c4sc(C)nc4C)n3)CC2)s1` tested on human recombinant LPA2 expressed in CHO cells (Homo sapiens, UniProt Q9HBW0) gave IC50: < 1000 nM

Item: `Cc1nc(C)c(-c2cccc(C(=O)N[C@@H](C)CN3CCN(S(=O)(=O)c4ccc5[nH]c(=O)sc5c4)CC3)c2)s1` | System: human recombinant LPA2 expressed in CHO cells (Homo sapiens, UniProt Q9HBW0) | IC50: < 1000 nM

Param item: `COC(=O)Nc1nc(C)c(S(=O)(=O)N2CCN(C[C@H](C)NC(=O)c3cccc(-c4ccc(C)nc4)c3)CC2)s1` ; param system: human recombinant LPA2 expressed in CHO cells (Homo sapiens, UniProt Q9HBW0); output IC50: 10 to 100 nM

Known value: human recombinant LPA2 expressed in CHO cells (Homo sapiens, UniProt Q9HBW0) IC50 of the compound `Cc1cc(-c2ccc(S(=O)(=O)N3CCN(C[C@H](C)NC(=O)c4cc(-c5sc(C)nc5C)ccn4)CC3)s2)on1` equals 10 to 100 nM

Let me check: `Cc1cc(-c2ccc(S(=O)(=O)N3CCN(C[C@H](C)NC(=O)c4cc(-c5sc(C)nc5C)ccc4F)CC3)s2)on1` , system human recombinant LPA2 expressed in CHO cells (Homo sapiens, UniProt Q9HBW0), measured IC50 is 10 to 100 nM

`COC(=O)Nc1nc(C)c(S(=O)(=O)N2CCN(C[C@H](C)NC(=O)c3cccc(-c4cccc(CN(C)C)c4)c3)CC2)s1` tested on human recombinant LPA2 expressed in CHO cells (Homo sapiens, UniProt Q9HBW0) gave IC50: 10 to 100 nM

###

target: human recombinant LPA2 expressed in CHO cells (Homo sapiens); construct: expressed in transfected cells; host or cells: CHO cells (CHO-hLPA2 cell line); experiment: FLIPR calcium mobilization assay, LPA2 antagonism in CHO-hLPA2 cells; type: cell-based; details: LPA EC80 stimulation, potency class, read-out: LPA2 IC50
pIC50: −log10 of the molar value.
Entries and their measured pIC50 follow.

STRUCTURE AS SMILES	EXPERIMENTAL SYSTEM	pIC50
COC(=O)Nc1nc(C)c(S(=O)(=O)N2CCN(C[C@H](C)NC(=O)c3cccc(-c4cn(C)nc4C(F)(F)F)c3)CC2)s1	human recombinant LPA2 expressed in CHO cells (Homo sapiens)	> 6.00
COC(=O)Nc1nc(C)c(S(=O)(=O)N2CCN(C[C@H](C)NC(=O)c3cc(-c4sc(C)nc4C)ccc3F)CC2)s1	human recombinant LPA2 expressed in CHO cells (Homo sapiens)	7.00 to 8.00
COC(=O)Nc1nc(C)c(S(=O)(=O)N2CCN(C[C@H](C)NC(=O)c3cc(-c4cccc(CN(C)C)c4)cs3)CC2)s1	human recombinant LPA2 expressed in CHO cells (Homo sapiens)	> 6.00

Field pIC50 (entry `COC(=O)Nc1nc(C)c(S(=O)(=O)N2CCN(C[C@H](C)NC(=O)c3cccc(-c4sc(C)nc4C)c3)CC2)s1` ) reads > 8.00
